# System: human P-glycoprotein (PGP)
# assay_notes: Bidirectional digoxin Pgp transport across MDR-MDCK monolayers
# applied_conditions: dog, MDCK-MDR1, pH 7.4, Pgp transport, Papp B->A, shipped, 0.5% agarose medium apical only, Table 5 upper block c3; assayed 7 D

structure_string	Papp B→A at 120 min, 10 µM, ×10⁻⁶ cm/s
C[C@H]1O[C@@H](O[C@H]2[C@@H](O)C[C@H](O[C@H]3[C@@H](O)C[C@H](O[C@H]4CC[C@@]5(C)[C@H](CC[C@@H]6[C@@H]5C[C@@H](O)[C@]5(C)[C@@H](C7=CC(=O)OC7)CC[C@]65O)C4)O[C@@H]3C)O[C@@H]2C)C[C@H](O)[C@@H]1O	4.65
